# assay.summary: logP determination by HPLC on a reversed-phase column (C 18), EEC Directive 79/831 Annex V.A8
# Assay type: physicochemical
# test.context: value marked [b]
# Protocol: The stated logP values were determined in accordance with EEC Directive 79/831 Annex V.A8 by HPLC (high performance liquid chromatography) on a reversed-phase column (C 18). Temperature: 43° C.
measured.parameter: logP

{"compound": "C=C(CON=C(C)c1nc(C)ccc1C)CON=C(C)c1nc(C)ccc1C (single isomer, unassigned) [compound 307]", "readout.value": "2.37^[b] (isomer A)"}
{"compound": "CC(=NOCCCCON=C(c1cccc(C)n1)C(C)C)c1cccc(C)n1 (single isomer, unassigned) [compound 525]", "readout.value": "3.65^[b] (isomer A)"}
{"compound": "C=C(CON=C(C)c1cc(C)c(C)nn1)CON=C(C)c1cc(C)c(C)nn1 [compound 284]", "readout.value": "2.33^[b]"}
{"compound": "CC(=NOCC(C)(C)CON=C(C)c1ccccc1Cl)c1cccc(C)n1 [compound 413]", "readout.value": "5.59^[b]"}
{"compound": "Cc1cc(C)nc(C(N)=NOC/C=C\\CON=C(N)c2nc(C)cc(C)n2)n1 [compound 773]", "readout.value": "1.75^[b]"}
{"compound": "CC[Si](C)(CON=C(C)c1cccc(C)n1)CON=C(C)c1cccc(C)n1 [Compound 785]", "readout.value": "5.98^[b]"}
{"compound": "COCC#Cc1cc(C)nc(C(C)=NOCC(C)CON=C(C)c2cc(C#CCOC)cc(C)n2)c1 (centres unmarked) [compound 874]", "readout.value": "6.76^[b]"}
{"compound": "CC(=NOCCCCON=C(Cc1ccccc1)c1ncccc1C)c1cccc(C)n1 [compound 528]", "readout.value": "3.24^[b]"}
